# assay comment: Plasma levels of 9-deoxo-16,16-dimethyl-9-methylene-PGE2 by radioimmunoassay after insertion of a suppository
# Type: in vivo, Rhesus monkeys (Macaca mulatta)
# test settings: rhesus monkey, plasma, 30 mg, plasma; Monkey #7; 1.0 Hours; 30 mg Free Acid in H15 Plus 2% CSD Suppositories; read-out: Drug Levels
endpoint name: concentration at 1 h (ng/mL)
Please reply with the bare figure in ng/mL and do not write the unit itself.

Input: Note concentration at 1 h for the compound shown: C=C1C[C@@H](O)[C@H](/C=C/[C@@H](O)C(C)(C)CCCC)[C@H]1C/C=C\CCCC(=O)O [Free Acid, 9-deoxo-16,16-dimethyl-9-methylene-PGE2]
Output: 63.9

---

# assay comment: Plasma levels of 9-deoxo-16,16-dimethyl-9-methylene-PGE2 by radioimmunoassay after insertion of a suppository
# Format: in vivo, Rhesus monkeys (Macaca mulatta)
# test settings: rhesus monkey, plasma, 30 mg, plasma; Monkey #10; 1 Hours; 30 mg Potassium Salt in H15 Plus 2% CSD Suppositories; read-out: Drug Levels
Counter-ions that a name gives are not always drawn.
endpoint name: concentration at 1 h (ng/mL)
Please reply with the bare figure in ng/mL and do not write the unit itself.

Input: Note concentration at 1 h for the compound shown: C=C1C[C@@H](O)[C@H](/C=C/[C@@H](O)C(C)(C)CCCC)[C@H]1C/C=C\CCCC(=O)O [Potassium Salt]
Output: 1.5

---

# assay comment: Plasma levels of 9-deoxo-16,16-dimethyl-9-methylene-PGE2 by radioimmunoassay after insertion of a suppository
# Type: in vivo, Rhesus monkeys (Macaca mulatta)
# test settings: rhesus monkey, plasma, 30 mg, plasma; Monkey #6 (pregnant animal with uterine recording); 2 Hours; 30 mg Potassium Salt in H15 Suppositories; read-out: Drug Levels
Counter-ions that a name gives are not always drawn.
endpoint name: concentration at 2 h (ng/mL)
Please reply with the bare figure in ng/mL and do not write the unit itself.

Input: Note concentration at 2 h for the compound shown: C=C1C[C@@H](O)[C@H](/C=C/[C@@H](O)C(C)(C)CCCC)[C@H]1C/C=C\CCCC(=O)O [Potassium Salt]
Output: 28.4

---

# assay comment: Plasma levels of 9-deoxo-16,16-dimethyl-9-methylene-PGE2 by radioimmunoassay after insertion of a suppository
# Assay type: in vivo, Rhesus monkeys (Macaca mulatta)
# test settings: rhesus monkey, plasma, 30 mg, plasma; Monkey #14; 2 Hours; 30 mg Free Acid in H15 Plus 2% CSD + 10% Triacetin Suppositories; read-out: Drug Levels
# Procedure: A. Midtrimester pregnant female Rhesus monkeys (Macaca mulatta) are used. […] D. The plasma levels of 9-deoxo-16,16-d1methy1-9-methy1ene-PGE2 in monkeys treated with 6 formulations containing either 9-deoxo-16,16-dimethyl-9-methylene-PGE2 free acid or potassium salt are shown in Tables 1-6. In general, higher blood levels are measured in pregnant Rhesus monkeys than in non-pregnant monkeys.
endpoint name: concentration at 2 h (ng/mL)
Please reply with the bare figure in ng/mL and do not write the unit itself.

Input: Note concentration at 2 h for the compound shown: C=C1C[C@@H](O)[C@H](/C=C/[C@@H](O)C(C)(C)CCCC)[C@H]1C/C=C\CCCC(=O)O [Free Acid, 9-deoxo-16,16-dimethyl-9-methylene-PGE2]
Output: 28.7

---

# assay comment: Plasma levels of 9-deoxo-16,16-dimethyl-9-methylene-PGE2 by radioimmunoassay after insertion of a suppository
# Assay type: in vivo, Rhesus monkeys (Macaca mulatta)
# test settings: rhesus monkey, plasma, 30 mg, plasma; Monkey #3 (pregnant animal with uterine recording); 1.5 Hours; 30 mg Free Acid in H15 Suppositories; read-out: Drug Levels
endpoint name: concentration at 1.5 h (µg/mL)
Please reply with the bare figure in µg/mL and do not write the unit itself.

Input: Note concentration at 1.5 h for the compound shown: C=C1C[C@@H](O)[C@H](/C=C/[C@@H](O)C(C)(C)CCCC)[C@H]1C/C=C\CCCC(=O)O [Free Acid, 9-deoxo-16,16-dimethyl-9-methylene-PGE2]
Output: 0.0668

---

# assay comment: Plasma levels of 9-deoxo-16,16-dimethyl-9-methylene-PGE2 by radioimmunoassay after insertion of a suppository
# Assay type: in vivo, Rhesus monkeys (Macaca mulatta)
# test settings: rhesus monkey, plasma, 30 mg, plasma; Monkey #8; 1.5 Hours; 30 mg Free Acid in H15 Plus 2% CSD Suppositories; read-out: Drug Levels
endpoint name: concentration at 1.5 h (ng/mL)
Please reply with the bare figure in ng/mL and do not write the unit itself.

Input: Note concentration at 1.5 h for the compound shown: C=C1C[C@@H](O)[C@H](/C=C/[C@@H](O)C(C)(C)CCCC)[C@H]1C/C=C\CCCC(=O)O [Free Acid, 9-deoxo-16,16-dimethyl-9-methylene-PGE2]
Output: 61.1

---

# assay comment: Plasma levels of 9-deoxo-16,16-dimethyl-9-methylene-PGE2 by radioimmunoassay after insertion of a suppository
# Format: in vivo, Rhesus monkeys (Macaca mulatta)
# test settings: rhesus monkey, plasma, 30 mg, plasma; Monkey #3 (pregnant animal with uterine recording); 6.0 Hours; 30 mg Free Acid in H15 Suppositories; read-out: Drug Levels
endpoint name: concentration at 6 h

Input: Note concentration at 6 h for the molecule shown: C=C1C[C@@H](O)[C@H](/C=C/[C@@H](O)C(C)(C)CCCC)[C@H]1C/C=C\CCCC(=O)O [Free Acid, 9-deoxo-16,16-dimethyl-9-methylene-PGE2]
Output: 13.7 ng/mL

---

# assay comment: Plasma levels of 9-deoxo-16,16-dimethyl-9-methylene-PGE2 by radioimmunoassay after insertion of a suppository
# Format: in vivo, Rhesus monkeys (Macaca mulatta)
# test settings: rhesus monkey, plasma, 30 mg, plasma; Monkey #10; .5 Hours; 30 mg Potassium Salt in H15 Plus 2% CSD Suppositories; read-out: Drug Levels
Structures can show the parent of a compound that is named as a salt.
endpoint name: concentration at 0.5 h (ng/mL)
Please reply with the bare figure in ng/mL and do not write the unit itself.

Input: Note concentration at 0.5 h for the compound shown: C=C1C[C@@H](O)[C@H](/C=C/[C@@H](O)C(C)(C)CCCC)[C@H]1C/C=C\CCCC(=O)O [Potassium Salt]
Output: 2.39

---

# assay comment: Plasma levels of 9-deoxo-16,16-dimethyl-9-methylene-PGE2 by radioimmunoassay after insertion of a suppository
# Assay type: in vivo, Rhesus monkeys (Macaca mulatta)
# test settings: rhesus monkey, plasma, 30 mg, plasma; Monkey #4; 2 Hours; 30 mg Potassium Salt in H15 Suppositories; read-out: Drug Levels
# Description: A. Midtrimester pregnant female Rhesus monkeys (Macaca mulatta) are used. […] D. The plasma levels of 9-deoxo-16,16-d1methy1-9-methy1ene-PGE2 in monkeys treated with 6 formulations containing either 9-deoxo-16,16-dimethyl-9-methylene-PGE2 free acid or potassium salt are shown in Tables 1-6. In general, higher blood levels are measured in pregnant Rhesus monkeys than in non-pregnant monkeys.
Counter-ions that a name gives are not always drawn.
endpoint name: concentration at 2 h (ng/mL)
Please reply with the bare figure in ng/mL and do not write the unit itself.

Input: Note concentration at 2 h for the compound shown: C=C1C[C@@H](O)[C@H](/C=C/[C@@H](O)C(C)(C)CCCC)[C@H]1C/C=C\CCCC(=O)O [Potassium Salt]
Output: 0.86

---

# assay comment: Plasma levels of 9-deoxo-16,16-dimethyl-9-methylene-PGE2 by radioimmunoassay after insertion of a suppository
# Assay type: in vivo, Rhesus monkeys (Macaca mulatta)
# test settings: rhesus monkey, plasma, 30 mg, plasma; Monkey #11; 3 Hours; 30 mg Potassium Salt in H15 Plus 2% CSD Suppositories; read-out: Drug Levels
Structures can show the parent of a compound that is named as a salt.
endpoint name: concentration at 3 h (ng/mL)
Please reply with the bare figure in ng/mL and do not write the unit itself.

Input: Note concentration at 3 h for the compound shown: C=C1C[C@@H](O)[C@H](/C=C/[C@@H](O)C(C)(C)CCCC)[C@H]1C/C=C\CCCC(=O)O [Potassium Salt]
Output: 9.48

---

# assay comment: Plasma levels of 9-deoxo-16,16-dimethyl-9-methylene-PGE2 by radioimmunoassay after insertion of a suppository
# Format: in vivo, Rhesus monkeys (Macaca mulatta)
# test settings: rhesus monkey, plasma, 30 mg, plasma; Monkey #4; 24 Hours; 30 mg Potassium Salt in H15 Suppositories; read-out: Drug Levels
# Experimental: A. Midtrimester pregnant female Rhesus monkeys (Macaca mulatta) are used. […] D. The plasma levels of 9-deoxo-16,16-d1methy1-9-methy1ene-PGE2 in monkeys treated with 6 formulations containing either 9-deoxo-16,16-dimethyl-9-methylene-PGE2 free acid or potassium salt are shown in Tables 1-6. In general, higher blood levels are measured in pregnant Rhesus monkeys than in non-pregnant monkeys.
Where a name gives a salt, the structure may show the parent alone.
endpoint name: concentration at 24 h (ng/mL)
Please reply with the bare figure in ng/mL and do not write the unit itself.

Input: Note concentration at 24 h for the molecule shown: C=C1C[C@@H](O)[C@H](/C=C/[C@@H](O)C(C)(C)CCCC)[C@H]1C/C=C\CCCC(=O)O [Potassium Salt]
Output: 21.7

---

# assay comment: Plasma levels of 9-deoxo-16,16-dimethyl-9-methylene-PGE2 by radioimmunoassay after insertion of a suppository
# Format: in vivo, Rhesus monkeys (Macaca mulatta)
# test settings: rhesus monkey, plasma, 30 mg, plasma; Monkey #1; 3.0 Hours; 30 mg Free Acid in H15 Suppositories; read-out: Drug Levels
endpoint name: concentration at 3 h
Give the figure together with its unit, number first.

Input: Note concentration at 3 h for the compound shown: C=C1C[C@@H](O)[C@H](/C=C/[C@@H](O)C(C)(C)CCCC)[C@H]1C/C=C\CCCC(=O)O [Free Acid, 9-deoxo-16,16-dimethyl-9-methylene-PGE2]
Output: 0.23 ng/mL

Source: patent EP0097439A2
